Tested on: K-562 (Chronic Myelogenous Leukemia)
method_summary: combination Emax (second highest fraction inhibited in the dose matrix, 72 h); higher = more inhibition; extreme values may be limits of the assay
Entry flag: Criterion met if combination Emax reaches 0.4; Criterion not met if it does not.

>  <compound>
CN(CCO)CC[C@H](CSc1ccccc1)Nc1ccc(S(=O)(=O)NC(=O)c2ccc(N3CCC([C@@H](O)c4ccccc4-c4ccc(Cl)cc4)CC3)cc2)cc1S(=O)(=O)C(F)(F)F [AZD4320] + C[C@@H]1COCCN1C2=NC(=NC(=C2)C3(CC3)[S@](=N)(=O)C)C4=C5C=CNC5=NC=C4 [AZD6738] (first compound max 1 µM, 7x7, partner max 10 µM)

>  <label>
Criterion met

$$$$
>  <compound>
CS(=O)(=O)CCNCc1ccc(-c2ccc3ncnc(Nc4ccc(OCc5cccc(F)c5)c(Cl)c4)c3c2)o1 [Lapatinib] + NC1(c2ccc(-c3nc4ccn5c(=O)[nH]nc5c4cc3-c3ccccc3)cc2)CCC1 [MK-2206] (first compound max 10 µM, 7x7, partner max 10 µM)

>  <label>
Criterion met

$$$$
>  <compound>
Cc1cc2ncnn2cc1Nc1ncc2c(n1)n(C1CCOCC1)c(=O)n2C [AZD7648] + CN(C)CCCOc1ccc(-c2ccc3ncc4c(c3c2)n(C2CCOCC2)c(=O)n4C)cn1 [AZD0156] (first compound max 10 µM, 7x7, partner max 1 µM)

>  <label>
Criterion not met

$$$$
>  <compound>
C=CCn1c(=O)c2cnc(Nc3ccc(N4CCN(C)CC4)cc3)nc2n1-c1cccc(C(C)(C)O)n1 [AZD1775] + CCc1c2c(nc3ccc(O)cc13)-c1cc3c(c(=O)n1C2)COC(=O)[C@]3(O)CC [SN-38] (first compound max 1 µM, partner max 0.3 µM)

>  <label>
Criterion met

$$$$
>  <compound>
CC(=O)c1c(C)c2cnc(Nc3ccc(N4CCNCC4)cn3)nc2n(C2CCCC2)c1=O [Palbociclib] + Cc1c2c(nn1C)CSCc1cc(n(C)n1)CSc1cc(c3ccccc3c1)OCCCc1c(C(=O)O)n(C)c3c-2c(Cl)ccc13 [AZD5991] (first compound max 10 µM, 7x7, partner max 1 µM)

>  <label>
Criterion not met

$$$$
>  <compound>
COc1nnc2ccc(N3CCC(c4ccc(OCCN5CCN(C)C(=O)[C@H]5C)cc4)CC3)nn12 [AZD5153] + CC1(C)CCC(CN2CCN(c3ccc(C(=O)NS(=O)(=O)c4ccc(NCC5CCOCC5)c([N+](=O)[O-])c4)c(Oc4cnc5[nH]ccc5c4)c3)CC2)=C(c2ccc(Cl)cc2)C1 [Venetoclax] (first compound max 1 µM, 7x7, partner max 1 µM)

>  <label>
Criterion met

$$$$

---

Tested on: L-540 (Hodgkin's Lymphoma)
method_summary: combination Emax (second highest fraction inhibited in the dose matrix, 72 h); higher = more inhibition; extreme values may be limits of the assay

>  <molecule>
CCc1c2c(nc3ccc(O)cc13)-c1cc3c(c(=O)n1C2)COC(=O)[C@]3(O)CC [SN-38] + CN(C)CCCOc1ccc(-c2ccc3ncc4c(c3c2)n(C2CCOCC2)c(=O)n4C)cn1 [AZD0156] (first compound max 0.3 µM, 7x7, partner max 1 µM)

>  <combination Emax>
0.951

$$$$

---

Test system: ES1 (Ewing's Sarcoma)
method_summary: combination Emax (second highest fraction inhibited in the dose matrix, 72 h); higher = more inhibition; extreme values may be limits of the assay
# combination Emax annotations

>  <molecule>
CC(=O)Nc1cccc(-n2c(=O)n(C3CC3)c(=O)c3c(Nc4ccc(I)cc4F)n(C)c(=O)c(C)c32)c1 [Trametinib] + Cc1nc(-c2cn3c(n2)-c2ccc(-c4cnn(C(C)(C)C(N)=O)c4)cc2OCC3)n(C(C)C)n1 [Taselisib] (first compound max 1 µM, 7x7, partner max 10 µM)

>  <combination Emax>
0.651

$$$$
>  <molecule>
COc1cccc(OCCCN)c1-c1cc(Nc2cnc(C#N)cn2)n[nH]1 [Prexasertib] + C=CCn1c(=O)c2cnc(Nc3ccc(N4CCN(C)CC4)cc3)nc2n1-c1cccc(C(C)(C)O)n1 [AZD1775] (first compound max 1 µM, partner max 1 µM)

>  <combination Emax>
1

$$$$
>  <molecule>
CN(CCO)CC[C@H](CSc1ccccc1)Nc1ccc(S(=O)(=O)NC(=O)c2ccc(N3CCC([C@@H](O)c4ccccc4-c4ccc(Cl)cc4)CC3)cc2)cc1S(=O)(=O)C(F)(F)F [AZD4320] + C[C@@H](Nc1cc(F)cc(F)c1)c1cc(C(=O)N(C)C)cc2c(=O)cc(N3CCOCC3)oc12 [AZD8186] (first compound max 1 µM, 7x7, partner max 3 µM)

>  <combination Emax>
0.725

$$$$
>  <molecule>
CC1(C)CCC(CN2CCN(c3ccc(C(=O)NS(=O)(=O)c4ccc(NCC5CCOCC5)c([N+](=O)[O-])c4)c(Oc4cnc5[nH]ccc5c4)c3)CC2)=C(c2ccc(Cl)cc2)C1 [Venetoclax] + CCN(CCO)CCCOc1ccc2c(Nc3cc(CC(=O)Nc4cccc(F)c4)[nH]n3)ncnc2c1 [AZD2811] (first compound max 1 µM, 7x7, partner max 1 µM)

>  <combination Emax>
0.759

$$$$
>  <molecule>
NC1(C(=O)N[C@@H](CCO)c2ccc(Cl)cc2)CCN(c2ncnc3[nH]ccc23)CC1 [Capivasertib] + CCN(CCO)CCCOc1ccc2c(Nc3cc(CC(=O)Nc4cccc(F)c4)[nH]n3)ncnc2c1 [AZD2811] (first compound max 10 µM, 7x7, partner max 1 µM)

>  <combination Emax>
0.905

$$$$
>  <molecule>
Cc1cc2ncnn2cc1Nc1ncc2c(n1)n(C1CCOCC1)c(=O)n2C [AZD7648] + C=CCn1c(=O)c2cnc(Nc3ccc(N4CCN(C)CC4)cc3)nc2n1-c1cccc(C(C)(C)O)n1 [AZD1775] (first compound max 10 µM, partner max 1 µM)

>  <combination Emax>
0.639

$$$$
>  <molecule>
Cc1c2c(nn1C)CSCc1cc(n(C)n1)CSc1cc(c3ccccc3c1)OCCCc1c(C(=O)O)n(C)c3c-2c(Cl)ccc13 [AZD5991] + Nc1ccn([C@@H]2O[C@H](CO)[C@@H](O)C2(F)F)c(=O)n1 [Gemcitabine] (first compound max 1 µM, 7x7, partner max 0.3 µM)

>  <combination Emax>
1

$$$$
>  <molecule>
CN(C)CCCOc1ccc(-c2ccc3ncc4c(c3c2)n(C2CCOCC2)c(=O)n4C)cn1 [AZD0156] + C[C@@H]1COCCN1C2=NC(=NC(=C2)C3(CC3)[S@](=N)(=O)C)C4=C5C=CNC5=NC=C4 [AZD6738] (first compound max 1 µM, 7x7, partner max 10 µM)

>  <combination Emax>
0.956

$$$$
>  <molecule>
Cn1cnc2c(F)c(Nc3ccc(Br)cc3Cl)c(C(=O)NOCCO)cc21 [Selumetinib] + CCN(CCO)CCCOc1ccc2c(Nc3cc(CC(=O)Nc4cccc(F)c4)[nH]n3)ncnc2c1 [AZD2811] (first compound max 10 µM, 7x7, partner max 1 µM)

>  <combination Emax>
0.532

$$$$
>  <molecule>
Cc1c2c(nn1C)CSCc1cc(n(C)n1)CSc1cc(c3ccccc3c1)OCCCc1c(C(=O)O)n(C)c3c-2c(Cl)ccc13 [AZD5991] + C1CN(CCC1(C(=O)N[C@@H](CCO)C2=CC=C(C=C2)Cl)N)C3=NC=NC4=C3C=CN4 [Capivasertib] (first compound max 1 µM, 7x7, partner max 3 µM)

>  <combination Emax>
0.955

$$$$
>  <molecule>
Cn1cnc2c(F)c(Nc3ccc(Br)cc3Cl)c(C(=O)NOCCO)cc21 [Selumetinib] + C=CCn1c(=O)c2cnc(Nc3ccc(N4CCN(C)CC4)cc3)nc2n1-c1cccc(C(C)(C)O)n1 [AZD1775] (first compound max 10 µM, partner max 1 µM)

>  <combination Emax>
0.602

$$$$
>  <molecule>
Cc1c2c(nn1C)CSCc1cc(n(C)n1)CSc1cc(c3ccccc3c1)OCCCc1c(C(=O)O)n(C)c3c-2c(Cl)ccc13 [AZD5991] + Cc1cc2ncnn2cc1Nc1ncc2c(n1)n(C1CCOCC1)c(=O)n2C [AZD7648] (first compound max 1 µM, 7x7, partner max 10 µM)

>  <combination Emax>
0.798

$$$$
>  <molecule>
CC1(C)CCC(CN2CCN(c3ccc(C(=O)NS(=O)(=O)c4ccc(NCC5CCOCC5)c([N+](=O)[O-])c4)c(Oc4cnc5[nH]ccc5c4)c3)CC2)=C(c2ccc(Cl)cc2)C1 [Venetoclax] + C1CN(CCC1(C(=O)N[C@@H](CCO)C2=CC=C(C=C2)Cl)N)C3=NC=NC4=C3C=CN4 [Capivasertib] (first compound max 1 µM, 7x7, partner max 3 µM)

>  <combination Emax>
0.547

$$$$
